Reference source for all entries: paper PMC6690930

- system: AmGr10 (Apis mellifera, UniProt A0A7M6W8K8)
- Sequence (A0A7M6W8K8 entry or part of it): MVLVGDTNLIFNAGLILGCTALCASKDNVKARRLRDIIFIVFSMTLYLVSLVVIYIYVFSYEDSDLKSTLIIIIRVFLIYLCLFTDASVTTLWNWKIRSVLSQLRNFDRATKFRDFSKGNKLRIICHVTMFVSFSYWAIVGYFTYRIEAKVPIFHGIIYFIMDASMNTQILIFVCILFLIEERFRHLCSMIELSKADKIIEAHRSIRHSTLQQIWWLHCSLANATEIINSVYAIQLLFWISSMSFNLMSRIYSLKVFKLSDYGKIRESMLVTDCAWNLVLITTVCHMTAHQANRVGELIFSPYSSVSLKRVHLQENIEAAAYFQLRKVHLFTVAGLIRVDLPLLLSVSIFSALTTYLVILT
- assay_procedure: Two-electrode voltage-clamp recording of Xenopus oocytes expressing AmGr10
- Assay type: cell-based
- condition_summary: holding potential -70 mV
parameter: Response of oocytes injected with AmGr10 cRNA (in words)

Recorded Response of oocytes injected with AmGr10 cRNA (in words), per entry:
# input Return value of Response of oocytes injected with AmGr10 cRNA (in words) for input NC(=O)CC[C@H](N)C(=O)O [L-glutamine, L-Glutamine] , no commentary.
# output responsive

# input Return value of Response of oocytes injected with AmGr10 cRNA (in words) for input N[C@@H](CCC(=O)O)C(=O)O [L-glutamate, L-Glutamic acid] , no commentary.
# output responsive

# input Return value of Response of oocytes injected with AmGr10 cRNA (in words) for input NC(=O)C[C@H](N)C(=O)O [L-asparagine, L-Asparagine] , no commentary.
# output responsive

# input Return value of Response of oocytes injected with AmGr10 cRNA (in words) for input N=C(N)NCCC[C@H](N)C(=O)O [L-arginine, L-Arginine] , no commentary.
# output responsive

# input Return value of Response of oocytes injected with AmGr10 cRNA (in words) for input N[C@@H](CC(=O)O)C(=O)O [L-aspartate, L-Aspartic acid] , no commentary.
# output responsive

More entries:
# input Return value of Response of oocytes injected with AmGr10 cRNA (in words) for input Cn1c(=O)c2c(ncn2C)n(C)c1=O [caffeine] , no commentary.
# output not

# input Return value of Response of oocytes injected with AmGr10 cRNA (in words) for input NCCCC[C@H](N)C(=O)O [L-lysine, L-Lysine] , no commentary.
# output responsive
